Molecular target: T1, Lag3 on cynomolgus PBMC/T cells (cynomolgus)
T1 construct: whole, on cells
Assay: flow cytometry, CD3/CD28-activated cynomolgus PBMC, 10 µg/ml
Record form. Attribute: Percentage of Lag3 positive cells. Fill in for each entry.
Supply the numeric figure in %, leaving out any unit text.

Input bivalent P9G1 aVH-Fc (Fc fusion) EVQLVESGGGLVQPGGSLRLSCAASGFNIKDTCIGWVRRAPGKGTELVAEICQDIGYTRYADSVKGRFTISADTSKNTAYLQMNSLRAEDTAVYYCAGEEGATNFKYWGQGTTVTVSSGGGGSGGGGSDKTHTCPPCPAPEAAGGPSVFLFPPKPKDTLMISRTPEVTCVVVDVSHEDPEVKFNWYVDGVEVHNAKTKPREEQYNSTYRVVSVLTVLHQDWLNGKEYKCKVSNKALGAPIEKTISKAKGQPREPQVYTLPPSRDELTKNQVSLTCLVKGFYPSDIAVEWESNGQPENNYKTTPPVLDSDGSFFLYSKLTVDKSRWQQGNVFSCSVMHEALHNHYTQKSLSLSPGK . Output Percentage of Lag3 positive cells: 54.1

Input bivalent P10D1 aVH-Fc (Fc fusion) EVQLVESGGGLVQPGGSLRLSCAASGFSIKDTCIAWVRRAPGKGTELVAEICEDIGYTRYADSVKGRFTISADTSKNTAYLQMNSLRAEDTAVYYCAAKEAGVGFDYWGQGTTVTVSSGGGGSGGGGSDKTHTCPPCPAPEAAGGPSVFLFPPKPKDTLMISRTPEVTCVVVDVSHEDPEVKFNWYVDGVEVHNAKTKPREEQYNSTYRVVSVLTVLHQDWLNGKEYKCKVSNKALGAPIEKTISKAKGQPREPQVYTLPPSRDELTKNQVSLTCLVKGFYPSDIAVEWESNGQPENNYKTTPPVLDSDGSFFLYSKLTVDKSRWQQGNVFSCSVMHEALHNHYTQKSLSLSPGK . Output Percentage of Lag3 positive cells: 61.7

Input bivalent 19G3 aVH-Fc (Fc fusion) EVQLVESGGGLVQPGGSLRLSCAASGFNIKYQCIGWVRRAPGKGTELVAEICSYDGYTRYADSVKGRFTISADTSKNTAYLQMNSLRAEDTAVYYCAAEESVEGFIYWGQGTTVTVSSGGGGSGGGGSDKTHTCPPCPAPEAAGGPSVFLFPPKPKDTLMISRTPEVTCVVVDVSHEDPEVKFNWYVDGVEVHNAKTKPREEQYNSTYRVVSVLTVLHQDWLNGKEYKCKVSNKALGAPIEKTISKAKGQPREPQVYTLPPSRDELTKNQVSLTCLVKGFYPSDIAVEWESNGQPENNYKTTPPVLDSDGSFFLYSKLTVDKSRWQQGNVFSCSVMHEALHNHYTQKSLSLSPGK . Output Percentage of Lag3 positive cells: 54.3

Input bivalent P21A03 aVH-Fc (Fc fusion) EVQLVESGGGLVQPGGSLRLSCAASGFNIKDTCIGWVRRAPGKGTELVAEICEDIGYTRYADSVKGRFTISADTSKNTAYLQMNSLRAEDTAVYYCAANEHSVGFNYWGQGTTVTVSSGGGGSGGGGSDKTHTCPPCPAPEAAGGPSVFLFPPKPKDTLMISRTPEVTCVVVDVSHEDPEVKFNWYVDGVEVHNAKTKPREEQYNSTYRVVSVLTVLHQDWLNGKEYKCKVSNKALGAPIEKTISKAKGQPREPQVYTLPPSRDELTKNQVSLTCLVKGFYPSDIAVEWESNGQPENNYKTTPPVLDSDGSFFLYSKLTVDKSRWQQGNVFSCSVMHEALHNHYTQKSLSLSPGK . Output Percentage of Lag3 positive cells: 52.2
